System: i-motif DNA
Experiment: Displacement of thiazole orange from human ILPR i-motif DNA at 10 equiv. at pH 5.5 by fluorescent intercalator displacement assay
Type: nucleic-acid assay
attributeMeasured: Activity

O=c1c(-c2ccc(O)cc2)coc2cc(O[C@@H]3O[C@H](CO)[C@@H](O)[C@H](O)[C@H]3O)cc(O)c12; 5.3%
O=C(O)C1=CO[C@@H](O[C@@H]2O[C@H](CO)[C@@H](O)[C@H](O)[C@H]2O)[C@@H]2C(CO)=CC[C@H]12; -3.5%
OC[C@H]1O[C@@H](O[C@@H]2[C@@H](CO)O[C@](O)(CO)[C@H]2O)[C@H](O)[C@@H](O)[C@H]1O; -5%
O=C(O)[C@H]1O[C@@H](Oc2cc3oc(-c4ccccc4)cc(=O)c3c(O)c2O)[C@H](O)[C@@H](O)[C@@H]1O; 9.5%
O=c1c(-c2ccc(O)cc2)coc2cc(O[C@@H]3O[C@H](CO)[C@@H](O)[C@H](O)[C@H]3O)ccc12; -2.5%

From here, focus on the item given below.
QUERY: Record "COC(=O)C1=CO[C@@H](O[C@@H]2O[C@H](CO)[C@@H](O)[C@H](O)[C@H]2O)[C@@H]2C(CO)=CC[C@H]12" : what is its Activity with i-motif DNA?
RESULT: 7.2%
